Data credit: patent US20250179589A1

Exercise: state measured half-life for each of the molecules provided.
Test: Mouse IV pharmacokinetics
Assay type: in vivo
Conditions: whole blood, [ ] = range
Numbers only, in h.

Cc1c(NS(=O)(=O)c2c(Cl)cc(-c3ccnc(N4CCNCC4)c3)cc2Cl)c(CC(C)C)nn1C 1.5

API: the following record is the query input.
Enquiry: Any idea what its half-life is? The molecule is `Cc1nn(C)c(C)c1NS(=O)(=O)c1c(Cl)cc(-c2ccnc(N3CCNCC3)c2)cc1Cl`
Return: 1.3

---

Test: Fu Brain
Assay type: in vitro ADME
value-kind: fraction unbound
Numbers only.

Enquiry: Any idea what its fraction unbound is? The compound is Cc1nn(C)c(C)c1NS(=O)(=O)c1c(Cl)cc(-c2ccnc(N3CCNCC3)c2)cc1Cl [DDD85646]
Return: 0.068

---

Experiment: Mouse PO pharmacokinetics 10 mg/kg
Details: in vivo, PO 10 mg/kg, [ ] = range
value-kind: half-life (h)
Answers are plain numbers, in h.

Enquiry: Any idea what its half-life is? The compound is `Cc1c(NS(=O)(=O)c2c(Cl)cc(-c3ccnc(N4CCNCC4)c3)cc2Cl)c(CC(C)C)nn1C`
Return: 5.7

---

Test system: Ramos (Burkitt's lymphoma) cells
Experiment: MTS cell viability assay
Assay type: cell-based, human
Conditions: Homo sapiens, Ramos, 72 h
value-kind: pEC50
Give bare numbers, as −log10 of the molar value.

Enquiry: Any idea what its pEC50 is? The compound is `Cc1c(NS(=O)(=O)c2c(Cl)cc(-c3ccnc(N4CCNCC4)c3)cc2Cl)c(CC(C)C)nn1C`
Return: 7.38

---

Test system: Ramos (Burkitt's lymphoma) cells
Assay: Trypan blue exclusion cell viability assay
Format: cell-based, human
Conditions: Homo sapiens, 72 h
value-kind: pEC50
One number for each entry, as −log10 of the molar value.

Enquiry: Any idea what its pEC50 is? The compound is Cc1nn(C)c(C)c1NS(=O)(=O)c1c(Cl)cc(-c2ccnc(N3CCNCC3)c2)cc1Cl [DDD85646]
Return: 6.43

---

Test: Fu plasma, mouse
Type: in vitro ADME
value-kind: fraction unbound
Give bare numbers.

Enquiry: Any idea what its fraction unbound is? The compound is `Cc1c(NS(=O)(=O)c2c(Cl)cc(-c3ccnc(N4CCNCC4)c3)cc2Cl)c(CC(C)C)nn1C`
Return: 0.067

---

Experiment: Mouse PO pharmacokinetics 10 mg/kg
Settings: in vivo, PO 10 mg/kg, [ ] = range
value-kind: Cmax (ng/mL)
Answers are plain numbers, in ng/mL.

Cc1nn(C)c(C)c1NS(=O)(=O)c1c(Cl)cc(-c2ccnc(N3CCNCC3)c2)cc1Cl 2690

API: the following record is the query input.
Enquiry: Any idea what its Cmax is? The compound is `Cc1c(NS(=O)(=O)c2c(Cl)cc(-c3ccnc(N4CCNCC4)c3)cc2Cl)c(CC(C)C)nn1C`
Return: 11200

---

Test: Caco-2 permeability Papp
Format: in vitro ADME
Conditions: human
value-kind: Papp A→B (×10⁻⁶ cm/s)
Answers are plain numbers, in ×10⁻⁶ cm/s.

Enquiry: Any idea what its Papp A→B is? The compound is `Cc1nn(C)c(C)c1NS(=O)(=O)c1c(Cl)cc(-c2ccnc(N3CCNCC3)c2)cc1Cl`
Return: 4.3

---

Exercise: state measured Tmax for each of the compounds provided.
Experiment: Mouse PO pharmacokinetics 10 mg/kg
Conditions: in vivo, PO 10 mg/kg, [ ] = range
Give bare numbers, in h.

compound	Tmax, h
Cc1nn(C)c(C)c1NS(=O)(=O)c1c(Cl)cc(-c2ccnc(N3CCNCC3)c2)cc1Cl [DDD85646]	0.25

API: the following record is the query input.
Enquiry: Any idea what its Tmax is? The compound is Cc1c(NS(=O)(=O)c2c(Cl)cc(-c3ccnc(N4CCNCC4)c3)cc2Cl)c(CC(C)C)nn1C [DDD86481]
Return: 2
